The reported numbers originate from the supplement of paper PMC10126150.

Test system: ATP;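 further: ATP exposure 15 min at 22 °C before imaging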
assay summary: switch fluorescence ratio, 500 uM ATP over buffer (Cy3 cluster intensity, sum of 5 cycles each) (fold (ratio)); higher = stronger signal-on switching upon ATP binding; sequences stand for … in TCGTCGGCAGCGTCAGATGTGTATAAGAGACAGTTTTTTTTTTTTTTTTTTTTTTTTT…TC
condition info: aptamer strand: ATP DNA aptamer (quencher-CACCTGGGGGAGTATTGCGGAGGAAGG + anchor), 100 nM annealed; ATP concentration: 500 uM
parameter measured: switch fluorescence ratio

chain: TAGCTGTTAT
observed measurement: 0.997

chain: TATTTAAAGC
observed measurement: 0.977

chain: TGGCGGATAT
observed measurement: 1.06

chain: GGATGTATCT
observed measurement: 0.995

chain: TGGGGATCGA
observed measurement: 1.04

chain: AAGGGGGCAT
observed measurement: 0.979

chain: AAACGATGTT
observed measurement: 1.02

chain: TTACGGTCTA
observed measurement: 1.03

chain: AATGGATTTG
observed measurement: 0.995

chain: GGGATATAGT
observed measurement: 0.97

chain: GAGTTATGGA
observed measurement: 1.03

chain: GCGGCTGAAA
observed measurement: 1

chain: GCTTGTTGTT
observed measurement: 0.995

chain: CGCGATTTTA
observed measurement: 1.04

chain: ACTGGGTCGA
observed measurement: 1.04

chain: CCAATGCAGC
observed measurement: 3.22

chain: GGAGAGGTTT
observed measurement: 1.05

chain: GGGTGATGTG
observed measurement: 0.955

chain: GTTTCAAGAG
observed measurement: 1.03

chain: TTATGACAGG
observed measurement: 0.993

chain: CGTATTTAAA
observed measurement: 1.01

chain: GGCTTGGGTG
observed measurement: 1.08

chain: ACTTATTAAA
observed measurement: 1.03

chain: AAGGGCCAAT
observed measurement: 1

chain: TTGTCAGACT
observed measurement: 0.98

chain: GAGGCTGTAT
observed measurement: 1

chain: TGACGGGAAT
observed measurement: 1.01

chain: GCGATGCCTG
observed measurement: 0.973

chain: CCGGGAGTGT
observed measurement: 1.12

chain: TTATTTGTTA
observed measurement: 1.01

chain: CGTGGGCGTG
observed measurement: 0.98

---

Recorded switch fluorescence ratio by entry
Tested on: ATP;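 further: ATP exposure 15 min at 22 °C before imaging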
assay summary: switch fluorescence ratio, 500 uM ATP over buffer (Cy3 cluster intensity, sum of 5 cycles each) (fold (ratio)); higher = stronger signal-on switching upon ATP binding; sequences stand for … in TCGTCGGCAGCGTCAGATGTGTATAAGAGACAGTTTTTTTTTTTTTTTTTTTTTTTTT…TC
condition info: aptamer strand: ATP DNA aptamer (quencher-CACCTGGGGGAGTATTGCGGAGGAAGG + anchor), 100 nM annealed; ATP concentration: 500 uM

chain: TTCCCTTTGG
switch fluorescence ratio: 1.01
//
chain: TATTGGAGTT
switch fluorescence ratio: 1.04
//
chain: AGCACAGGGG
switch fluorescence ratio: 0.985
//
chain: TTTAAAAGGG
switch fluorescence ratio: 1
//
chain: GGGGTGTTGG
switch fluorescence ratio: 1.01
//
chain: TTTTAAATGC
switch fluorescence ratio: 1.07
//
chain: TACTGGGGCA
switch fluorescence ratio: 0.984
//
chain: ACGGGATGGG
switch fluorescence ratio: 1.06
//
chain: CGTGTTGTGG
switch fluorescence ratio: 0.97
//
chain: CTGAGTGATG
switch fluorescence ratio: 1.01
//
chain: CAGTGCAGCG
switch fluorescence ratio: 1.06
//
chain: TTAAAAGTTT
switch fluorescence ratio: 0.994
//
chain: GTGAGCTCAT
switch fluorescence ratio: 1.01
//
chain: GGAGGAGTTT
switch fluorescence ratio: 1.65
//
chain: CGATGGTGAA
switch fluorescence ratio: 1.02
//
chain: AAGGCGAGGA
switch fluorescence ratio: 1.04
//
chain: TTGTGCGCAG
switch fluorescence ratio: 1
//
chain: ATTTGCAATT
switch fluorescence ratio: 1.03
//
chain: CCCAGGTAGC
switch fluorescence ratio: 4.65
//
chain: AAACAGGTTG
switch fluorescence ratio: 1.05
//
chain: TGAAGTGTTG
switch fluorescence ratio: 0.99
//
chain: AAGAGTACAT
switch fluorescence ratio: 0.993
//
chain: TTTAAGGATT
switch fluorescence ratio: 1.21
//
chain: GGGGGGCAAA
switch fluorescence ratio: 1
//
chain: CGGCGCTGGA
switch fluorescence ratio: 1.01
//
chain: GGAAGGAGGC
switch fluorescence ratio: 1.02
//
chain: AAATGGAACC
switch fluorescence ratio: 1.04
//
chain: TATTTAGTCG
switch fluorescence ratio: 0.975
//
chain: GTTATGGCTG
switch fluorescence ratio: 1.05
//
chain: CATGACCGAA
switch fluorescence ratio: 1.01
//
chain: ATATATGTAC
switch fluorescence ratio: 1.09
